B1: CPEB3 Ribozyme (parent)
chain: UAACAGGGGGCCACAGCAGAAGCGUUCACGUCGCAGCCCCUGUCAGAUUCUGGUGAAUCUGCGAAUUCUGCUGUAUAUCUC

variants of: B1; experiment: self-cleavage, relative activity (ratio to wild type); higher = more cleavage; in vitro, sequencing
OBSERVATION TYPE: self-cleavage
# print the numeric value only

Task item: Look at this variant and give its reported self-cleavage. A35C A57G
Reply: 0.93

Task item: Look at this variant and give its reported self-cleavage. G9U U69C
Reply: 0.11

Task item: Look at this variant and give its reported self-cleavage. A5G G33C
Reply: 0.38

Task item: Look at this variant and give its reported self-cleavage. U25A U48C
Reply: 0.3

Task item: Look at this variant and give its reported self-cleavage. U72C U80C
Reply: 1.24

Task item: Look at this variant and give its reported self-cleavage. U58A C68U
Reply: 0.23

Task item: Look at this variant and give its reported self-cleavage. U31G A75U
Reply: 0.46
